test_system: ΔF508-CFTR (Homo sapiens, UniProt P13569, DEL508-508)
Construct: expressed in transfected cells; host or cells: Fischer rat thyroid (FRT) epithelial cells, stably transfected
Sequence (P13569 with tags, fused parts or gaps DEL508-508): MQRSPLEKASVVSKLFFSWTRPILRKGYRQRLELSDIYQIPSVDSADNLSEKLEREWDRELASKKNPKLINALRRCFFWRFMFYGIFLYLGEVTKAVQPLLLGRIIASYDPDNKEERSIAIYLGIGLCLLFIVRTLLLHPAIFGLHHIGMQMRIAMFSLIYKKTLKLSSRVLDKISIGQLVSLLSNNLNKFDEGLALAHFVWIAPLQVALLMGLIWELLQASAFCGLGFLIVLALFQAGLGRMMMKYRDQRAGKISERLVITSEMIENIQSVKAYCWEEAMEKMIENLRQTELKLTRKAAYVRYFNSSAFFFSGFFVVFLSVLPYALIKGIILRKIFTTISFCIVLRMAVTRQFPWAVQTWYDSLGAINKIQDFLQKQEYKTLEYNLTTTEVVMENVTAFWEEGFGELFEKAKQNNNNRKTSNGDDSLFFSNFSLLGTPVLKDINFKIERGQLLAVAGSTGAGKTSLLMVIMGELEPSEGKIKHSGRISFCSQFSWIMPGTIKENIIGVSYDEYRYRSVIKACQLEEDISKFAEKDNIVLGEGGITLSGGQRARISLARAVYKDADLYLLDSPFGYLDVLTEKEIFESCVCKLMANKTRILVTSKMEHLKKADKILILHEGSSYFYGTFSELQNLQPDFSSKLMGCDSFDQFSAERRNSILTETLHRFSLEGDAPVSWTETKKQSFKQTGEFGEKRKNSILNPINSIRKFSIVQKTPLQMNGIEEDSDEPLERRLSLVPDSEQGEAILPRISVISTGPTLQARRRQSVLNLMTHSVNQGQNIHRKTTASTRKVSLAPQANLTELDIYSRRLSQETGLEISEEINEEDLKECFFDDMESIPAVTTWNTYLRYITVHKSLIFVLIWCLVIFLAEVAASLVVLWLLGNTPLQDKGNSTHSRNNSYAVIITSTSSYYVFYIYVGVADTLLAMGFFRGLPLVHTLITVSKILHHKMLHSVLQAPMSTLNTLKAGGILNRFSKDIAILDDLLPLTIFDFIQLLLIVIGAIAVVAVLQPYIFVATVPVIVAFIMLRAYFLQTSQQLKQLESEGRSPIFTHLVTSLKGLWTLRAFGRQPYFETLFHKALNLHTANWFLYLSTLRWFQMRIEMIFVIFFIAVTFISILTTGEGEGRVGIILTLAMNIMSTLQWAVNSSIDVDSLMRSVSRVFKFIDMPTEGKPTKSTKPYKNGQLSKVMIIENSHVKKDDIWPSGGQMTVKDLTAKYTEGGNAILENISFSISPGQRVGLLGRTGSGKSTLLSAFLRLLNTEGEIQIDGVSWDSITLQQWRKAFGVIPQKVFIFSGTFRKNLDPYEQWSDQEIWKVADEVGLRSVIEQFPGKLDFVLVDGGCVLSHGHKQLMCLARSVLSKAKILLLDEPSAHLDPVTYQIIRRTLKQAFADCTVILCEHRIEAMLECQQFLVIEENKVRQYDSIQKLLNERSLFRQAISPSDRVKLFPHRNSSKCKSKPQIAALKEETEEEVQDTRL
procedure_details: Corrector assay, YFP fluorescence plate reader iodide influx in ΔF508-CFTR expressing FRT cells
Type: cell-based
study_conditions: Table IX, additional experiments; 18-24 h with compound at 37° C., forskolin 20 μM + genistein 50 μM
Protocol: Screening procedures. Screening of compounds for activity was carried out using a Beckman Coulter platform equipped with FLUOstar fluorescence plate readers (Optima; BMG Labtech) with dual syringe pumps and 500±10 nm excitation and 535±15 nm emission filters (Chroma Corp.). […] Initial I^− influx rate was computed by fitting the final 11.5 seconds of the data to an exponential for extrapolation of initial slope, which was normalized for background-subtracted initial fluorescence. […]
endpoint: Corrector Vmax

- compound: "Cc1cc(C)c2cc(C#N)c(N3CCN(C(=O)c4ccccn4)CC3)nc2c1 [drawing 173]"
  endpoint: "Corrector Vmax"
  meas_value: "inactive"
- compound: "Cc1cc(C)c2cc(C#N)c(NCCCNC(=O)c3ccccn3)nc2c1 [drawing 179]"
  endpoint: "Corrector Vmax"
  meas_value: "inactive"
- compound: "COc1ccccc1C(=O)N1CCN(c2nc3cc(C)cc(C)c3cc2C#N)CC1 [drawing 170]"
  endpoint: "Corrector Vmax"
  meas_value: "inactive"
